# maps each entry to its viability, T/C
system: 857933-349-R-J2-PDC complex spheroids, viability; experiment: Anticancer human tumor 857933-349-R-J2-PDC patient-derived colon adenocarcinoma cell line growth inhibition [GQUAD]; settings: second compound 0.1 µM; first compound 1 µM; stronger effect = lower value;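 note: spheroids exposed to compounds for one week before readout; percent viability relative to vehicle DMSO wells taken as 100%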
A number alone suffices; assume %.

Worked examples, 4 compounds total:
>>> quantitative_result("COc1ncnc(C2CC2)c1-c1ncc2cnn(Cc3ccc(-c4nc(C(F)(F)F)cn4C(C)C)cc3)c2n1 + Cc1cnc(CNC(=O)c2c(=O)c3ccc(N4CCCN(C)CC4)nc3n3c2sc2ccccc23)cn1")
64.1
>>> quantitative_result("CC(=O)O[C@H]1C(=O)[C@@]2(C)[C@H]([C@H](OC(=O)c3ccccc3)[C@]3(O)C[C@H](OC(=O)[C@H](O)[C@@H](NC(=O)c4ccccc4)c4ccccc4)C(C)=C1C3(C)C)[C@]1(OC(C)=O)CO[C@@H]1C[C@@H]2O + Cc1cnc(CNC(=O)c2c(=O)c3ccc(N4CCCN(C)CC4)nc3n3c2sc2ccccc23)cn1")
6.48
>>> quantitative_result("COc1ncnc(C2CC2)c1-c1ncc2cnn(Cc3ccc(-c4nc(C(F)(F)F)cn4C(C)C)cc3)c2n1 + CN(C)c1ccc(Nc2c3ccc(NC(=O)CCN4CCCC4)cc3nc3cc(NC(=O)CCN4CCCC4)ccc23)cc1")
101
>>> quantitative_result("C=CC(=O)N1CCN(c2nc(=O)n(-c3c(C)ccnc3C(C)C)c3nc(-c4c(O)cccc4F)c(F)cc23)C(C)C1 (stereo not given) + CN(C)c1ccc(Nc2c3ccc(NC(=O)CCN4CCCC4)cc3nc3cc(NC(=O)CCN4CCCC4)ccc23)cc1")
102

Shifting focus to the compound that follows.
# input Which viability, T/C reading was recorded for the compound Cc1cccc(N(C)C(=O)C2C(O)CCN2c2nc(C)cc(C(F)(F)F)c2C#N)c1 (stereo not given) + Cc1cnc(CNC(=O)c2c(=O)c3ccc(N4CCCN(C)CC4)nc3n3c2sc2ccccc23)cn1 ?
# output 58.8
